Reported CC50 at 24 h values for the following compounds.
# measurement notes: in vitro
# measurement parameters: human, hela-ace2 cells, 50.0
endpoint name: CC50 at 24 h

>>> result("CC(C)[C@@H](Nc1ncnc2[nH]c(-c3cnn(C)c3C#N)cc12)c1ccc2c(c1)OCCO2 (racemic) [ASAP-0008275]")
"> 50 µM"
>>> result("COc1ccc([C@@H](Cc2nnn[nH]2)NC(=O)c2ncnc3[nH]ccc23)cc1 [ASAP-0015384]")
"> 20 µM"
>>> result("CNCc1cc(-c2cc3c(N[C@@H](c4ccc5c(c4)S(=O)(=O)NCC5)C(C)C)ncnc3[nH]2)co1 [ASAP-0011243]")
"> 20 µM"
>>> result("CC(C)[C@H](Nc1ncnc2[nH]c(-c3cnn(C)c3C#N)cc12)c1ccc2c(c1)S(=O)(=O)CCC2 (single isomer, unassigned) [ASAP-0011144]")
"> 20 µM"
>>> result("CC(C)[C@@H](Nc1ncnc2[nH]ccc12)c1ccc2c(c1)S(=O)(=O)CCC2 (single isomer, unassigned) [ASAP-0008676]")
"> 20 µM"
>>> result("CC(C)[C@@H](Nc1ncnc2[nH]cc(C(=O)NC3CC3)c12)c1ccc2c(c1)S(=O)(=O)CCC2 [ASAP-0011207]")
"> 20 µM"
>>> result("CC(C)[C@@H](Nc1ncnc2[nH]c(-c3cnn(CC(N)=O)c3)cc12)c1ccc2c(c1)S(=O)(=O)CCC2 [ASAP-0011432]")
"> 20 µM"
>>> result("CNC(=O)c1cc2c(N[C@@H](c3ccc4c(c3)S(=O)(=O)CCC4)C(C)C)ncnc2[nH]1 (single isomer, unassigned) [ASAP-0012346]")
"> 20 µM"
>>> result("CC(C)[C@@H](Nc1ncnc2[nH]c(-c3cnn(CC(N)=O)c3)cc12)c1ccc2c(c1)OCCO2 [ASAP-0008288]")
"> 50 µM"
>>> result("CC(C)[C@@H](Nc1ncnc2[nH]ccc12)c1ccc2c(c1)S(=O)(=O)CCO2 [ASAP-0012318]")
"> 20 µM"
>>> result("CC(C)[C@@H](Nc1ncnc2[nH]c(-c3cnn(C)c3)cc12)c1ccc2c(c1)S(=O)(=O)NCC2 [ASAP-0011192]")
"> 20 µM"
>>> result("CC(C)[C@@H](Nc1ncnc2[nH]c(-c3ccc4nnn(C)c4c3)cc12)c1ccc2c(c1)S(=O)(=O)CCC2 [ASAP-0011201]")
"> 20 µM"
>>> result("CCNC(=O)c1cc2c(N[C@@H](c3ccc4c(c3)S(=O)(=O)CCO4)C(C)C)ncnc2[nH]1 (racemic) [ASAP-0012317]")
"> 20 µM"
